system: SF-295 CNS; test: NCI tumour cell line growth inhibition, 48 h
READOUT NAME: GI50

MOLECULE	RESULT
CN(C)c1ccc(-c2cc(-c3ccc(Nc4nc(Nc5ccc(Cl)cc5)nc(Nc5ccc(Cl)cc5)n4)cc3)nc(N)c2C#N)cc1	13.9 µM
COC12C(COC(=O)NCCO)C3=C(C(=O)C(C)=C(N)C3=O)N1CC1NC12 (stereo unspecified)	24.3 µM
C=C(C#N)C(=O)OCC(CC)CC.C=C(C#N)C(=O)OCC(CC)CC.CS(C)=O.CS(C)=O.Nc1c(N=Nc2ccc(-c3ccc(N=Nc4cc(S(=O)(=O)[O-])c5ccccc5c4N)cc3)cc2)cc(S(=O)(=O)[O-])c2ccccc12.[Pt+2]	98.4 µM
COc1ccc(/C=C2\CCC/C(=C\c3ccc(OC)c(OC)c3)C2=O)cc1OC	1.4 µM
CCCCCC(=O)O[C@]1(C(C)=O)CCC2C3CCC4=CC(=O)CC[C@]4(C)C3CC[C@@]21C (stereo partly specified)	2.87 µM
CCN(CC)c1ccc2nc3ccc(=[N+](CC)CC)cc-3oc2c1	0.28 µM
CCC(c1ccccc1)c1noc(CCN(CC)CC)n1 (stereo unspecified)	> 56.9 µM
C(=Nc1nc(SCc2ccccc2)nc2[nH]ncc12)c1cccs1	> 100 µM
Fc1ccc(NC(c2ccc(F)cc2)C2CCN(CCCCc3ccccc3)CC2)cc1 (stereo unspecified)	1.49 µM
Cc1cc(Cl)nc(N(CCNc2ccnc3cc(Cl)ccc23)Cc2ccco2)n1	1.5 µM
COc1ccc(Nc2cnc3cc(N)cc(N)c3n2)cc1	22.3 µM

----------
Recorded TGI, one value per entry.
tested on: COLO 205 colon; experiment: NCI tumour cell line growth inhibition, 48 h
READOUT NAME: TGI (µM)

COMPOUND	READING QUALIFIER	QUANTITATIVE READOUT
O=C1c2ccccc2N2OC3(N4CCOCC4)CCCC3C12c1ccccc1 (stereo not given)	>	100
CCCCCCCCCCCCCCCCCCNc1ccn(C2OC(COP(=O)(O)OCC3OC(n4ccc(N)nc4=O)C(O)C3O)C(O)C2O)c(=O)n1 (stereo not given)	>	100
CCSCC1CC(O)(c2ccccc2)C(c2ccccc2)C(c2ccc(F)cc2)O1 (stereo not given)	=	3.84
C=CCC(CCC(C)=O)(C(=O)OCC)C(=O)OCC	>	100
CN1CCN(c2c(F)cc(NC3=C(Cl)C(=O)c4ncccc4C3=O)cc2F)CC1	=	4.82

----------
system: MDA-N; assay: NCI tumour cell line growth inhibition, 48 h
Where a SMILES comes first, the peptide text is derived from it. [ ]: non-standard residue; d: D form. The star is where a group is joined. ξ: configuration not given here. ξF = NC(Cc1ccccc1)C(=O)O; Cbz = O=C(OCc1ccccc1)*
Recorded TGI, one value per entry.

COMPOUND	TGI
Oc1c(N2CCCCC2)cc(-c2cc(N3CCCCC3)c(O)c3ccccc23)c2ccccc12	33.5 µM
CCN1/C(=C/C#C/C(C)=C\c2sc3ccc(Cl)cc3[n+]2CC)Sc2ccc(Cl)cc21	12.9 µM
CCOC(=O)c1c(NC(=O)c2ccccc2)c(C#N)c2n1CCCCC2	> 100 µM
Cn1c(CNc2ccc(-c3n[nH]c(=S)n3C)cc2)n[nH]c1=S	> 100 µM
O=C1c2ccccc2C(=O)c2c(NC3CCCCC3)ccc(Nc3ccc(S(=O)(=O)O)cc3)c21	> 100 µM
CC(=O)NC1C(OCC(=O)NCCNc2ccc([N+](=O)[O-])c3[nH]c4ccccc4c(=O)c23)C(O)C(CO)OC1(C)OCc1ccccc1 (configuration not stated)	> 100 µM
CCOC(=O)CNC(=O)C(Cc1ccccc1)NC(=O)OCc1ccccc1 (configuration not stated) (Cbz-[ξF]-Gly-OEt)	> 100 µM
Cc1nc2c(sc3nc4c(cc32)CCC4)c(=O)o1	> 100 µM
CSc1nncc(-c2cc3c(c(SC)n2)CCCC3)n1	> 100 µM
CCN(/C=C1/C(=O)C(c2ccccc2)N(c2ccccc2)C1=O)CC (configuration not stated)	> 10 µM
CC(N)(CC(O)(C(F)(F)Cl)C(F)(F)Cl)C(=O)O (configuration not stated)	> 10 µM
O=C(NCCN(CCNC(=O)c1cccc(O)c1O)CCNC(=O)c1cccc(O)c1O)c1cccc(O)c1O	> 100 µM
O=c1cc(Nc2cccc(O)c2)[nH]c(=O)[nH]1	> 100 µM
O=c1c(-c2ccccc2)nnc2n(Cc3ccccc3)c3ccccc3n12	> 100 µM
COc1ccc(/C(Nc2ccccc2)=C(\CCl)c2ccccc2)cc1OC	> 100 µM
CCOC(=O)/C(=C\c1cccc(C)c1)C(C)=O	31.4 µM
CCOc1cnc(C(O)(c2ccccc2)c2ccccc2)o1	> 100 µM
CC(C)Cc1ccc(C(C)/C=C2\CCC(CN(C)C)C2=O)cc1 (configuration not stated)	22.2 µM
O=S(=O)(/N=C(\NO)Nc1ccc(Cl)cc1)c1cc(C(F)(F)F)cc(C(F)(F)F)c1	36.1 µM
COC(=O)/C=C/c1ccc(OP(=O)(O)O)c(OC)c1	> 100 µM
O=c1[nH]c2[nH]c(=S)[nH]c(=S)c2[nH]1	> 100 µM
NC(N)=NCCCC(NCc1c2ccccc2nc2ccccc12)C(=O)O (configuration not stated)	> 100 µM
